Quick list: ΔTm per entry.
Biological target: Casein kinase I isoform delta (Homo sapiens) (UniProt P48730)
Sequence (P48730 whole entry, looked up, canonical isoform): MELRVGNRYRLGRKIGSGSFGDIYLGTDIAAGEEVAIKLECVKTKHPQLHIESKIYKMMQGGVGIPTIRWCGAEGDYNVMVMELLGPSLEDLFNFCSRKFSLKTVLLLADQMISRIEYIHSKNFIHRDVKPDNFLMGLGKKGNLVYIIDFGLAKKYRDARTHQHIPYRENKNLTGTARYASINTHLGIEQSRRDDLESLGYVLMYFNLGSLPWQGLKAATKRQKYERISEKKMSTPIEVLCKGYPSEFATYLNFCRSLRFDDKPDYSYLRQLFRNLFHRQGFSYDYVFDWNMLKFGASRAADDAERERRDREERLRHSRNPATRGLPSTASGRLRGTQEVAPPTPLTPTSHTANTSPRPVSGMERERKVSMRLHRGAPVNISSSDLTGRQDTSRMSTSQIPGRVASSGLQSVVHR
Conditions: Compound concentration 20.0 uM, Protein concentration 2.0 uM, Result type QC Liability
Supply the numeric figure in °C, leaving out any unit text.

Check out these entries, answers already filled in.
COCCNC1CCC(Nc2cc(-c3csc(NCC4(C#N)CCOCC4)n3)c(Cl)cn2)CC1 (centres undefined) :: 2.18
Cn1nccc1-c1ccc(Sc2cccc(C3(C(N)=O)CCOCC3)c2)cc1 :: -0.02
COc1ccc(F)c(F)c1C(=O)c1cnc(NC2CCN(S(C)(=O)=O)CC2)nc1N :: 0.3
Cc1cc(NC(=O)c2cccc(NC(=O)/C=C/CN(C)C)c2)ccc1Nc1nccc(-c2cccnc2)n1 :: 4.02
CCCS(=O)(=O)Nc1ccc(F)c(Nc2ncnc3cnc(-n4cnc(C)c4)nc23)c1F :: 0.17
Cc1ccc(-c2cn3nc(C(=O)NC4(c5ccc(F)cc5)CN(C)C4)c(C(C)C)c3c(=O)[nH]2)cc1C :: 0.69

Input: Which ΔTm reading was recorded for the molecule "Cc1ccc(NC(=O)c2ccc3c(c2)OCCO3)cc1NC(=O)c1ccc2nc(OCCN3CCCC3)ccc2c1" ?
Output: 1.91

Input: "CSc1nc2c(c(=O)n(C)c(=O)n2C)n1C" ?
Output: 0.33

Input: "CC[C@@H](Nc1c(C#N)c(-c2ccc(-c3cccc(C)c3F)cc2)nc2cnccc12)C(=O)O" ?
Output: -0.63

====

Molecular target: Casein kinase I isoform delta (Homo sapiens)
Conditions: Compound concentration 20.0 uM, Protein concentration 2.0 uM, Result type QC Liability
Field 'label' (enum: MET / NOT MET). Set to MET when ΔTm is strictly under 0.3 °C; else NOT MET.

Look over these answered cases.
O=C(O)/C=C/c1ccc(Cn2ccnc2)cc1 :: MET
CC(=O)Oc1ccc2c(c1)[C@@]1(C)CCC[C@](C)(C(=O)OC(=O)[C@@]3(C)CCC[C@]4(C)c5cc(OC(C)=O)ccc5CC[C@@H]34)[C@@H]1CC2 :: MET
N#Cc1ccc(C#CC[C@@H](C#N)NC(=O)[C@H]2CCCCN2)cc1F :: NOT MET
CNC(=O)c1ccc2c(c1)ncn2-c1ccc(CC(=O)OC(C)(C)C)cc1 :: MET
Cc1nccn1-c1ccc(Sc2cccc(C3(C(N)=O)CCOCC3)c2)cc1 :: MET
Cn1nc(C(=O)NCc2ccc(C(=O)O)cc2)cc1-c1ccc2[nH]ccc2c1 :: NOT MET

Input: Confirm or reject: ΔTm of "Fc1ccc(-c2nc(-c3c(F)cccc3F)[nH]c2-c2ccncc2)cc1" lies strictly below 0.3 °C
Output: NOT MET

Input: "NCc1ccc(OCCCc2sc(-c3ccc4c(c3)/C(=N/Nc3nc5ccccc5s3)CCC4)nc2C(=O)O)cc1" ?
Output: MET

Input: "O=C(Nc1cc2cc[nH]c(=O)c2cc1Cl)[C@H]1CNC[C@@H]1c1cccnc1" ?
Output: MET

====

Quick list: ΔTm per entry.
Molecular target: Cyclin-dependent kinase 2 (Homo sapiens)
Conditions: Compound concentration 20.0 uM, Protein concentration 2.0 uM, Result type QC Liability
Description: Thermal Shift Assay. Domain: start/stop: M1-L298
Supply the numeric figure in °C, leaving out any unit text.

O=C(Cc1ccccc1[N+](=O)[O-])Nc1ccc(-c2ccc(C(O)(C(F)(F)F)C(F)(F)F)cc2F)cc1 :: 2.11
Cc1cc(NC(=O)c2cccc(NC(=O)/C=C/CN(C)C)c2)ccc1Nc1nccc(-c2cccnc2)n1 :: 1.64

Input: Which ΔTm reading was recorded for the compound "CCCCCCCN(CCc1ccc(SC(C)(C)C(=O)O)cc1)C(=O)Nc1ccc(F)cc1F" ?
Output: 0

Input: "CC(=O)N(CCN(C)C)c1ccc(N/C(=C2\C(=O)Nc3cc(Cl)ccc32)c2ccccc2)cn1" ?
Output: 3.16

Input: "CN(C)[C@H]1CC[C@H](Nc2ncc3ncnc(Nc4ccc(F)c(Cl)c4)c3n2)CC1" ?
Output: 1.27

Input: "CNc1oc(-c2cccc3ccccc23)nc1C#N" ?
Output: 0.95

Input: "COC[C@@H](C)N[C@H]1CC[C@H](Nc2cc(-c3cccc(NCC4(C#N)CCOCC4)n3)c(Cl)cn2)CC1" ?
Output: -1.43

Input: O=C(CNC(=O)c1ccc(-c2ccccc2)cc1)NC1CCCc2ccccc21 (centres undefined) ?
Output: -0.06

Input: "COc1cc(C(N)=O)nc(-c2cccc(C#C[C@]3(O)CCN(C)C3=O)c2)c1" ?
Output: 1.02
